Molecular target: T1, hK1 (human tissue kallikrein 1), recombinant (human, UniProt P06870 25-262)
T1 construct: Expressed in P. pastoris from KLK1 cDNA and purified; enzymatically active; also called KLK1; Recombinant (Pichia) Kallikrein
Test: SPR
Collected pKd values appear next to each entry.
Units for pKd: none; it is -log10 of a concentration expressed in mol/L.

Reference set, count: 2
M0096-E11 (Fab, V domains shown) VH: EVQLLESGGGLVQPGGSLRLSCAASGFTFSHYLMYWVRQAPGKGLEWVSSIYPSGGFTAYADSVKGRFTISRDNSKNTLYLQMNSLRAEDTAVYYCARRGVYGTFDIWGQGTMVTVSS VL: DIQMTQSPLSLSASVGDRVTMTCRASQTISSYLNWYQQKPGKAPKLLIYTTSSLQSGVPSRFSGSGSGTEFTLTISSLQPEDFATYYCQQSHSSPTFGGGTKVEIKR = 8.00
M0105-F02 (Fab, V domains shown) VH: EVQLLESGGGLVQPGGSLRLSCAASGFTFSRYWMAWVRQAPGKGLEWVSSIGPSGGSTKYADSVKGRFTISRDNSKNTLYLQMNSLRAEDTAVYYCARTARWLSFDYWGQGTLVTVSS VL: DIQMTQSPSTLSASVGDRVTITCRASQSISSWLAWYQQKPGEAPKLLIYAASSLRNGVPSRFIGSGSGTDFTLTISSLQPEDFATYYCQQSYSTPPTFGGGTKVEIKR = 7.96

In one line, give reported pKd of the entry M0117-B07 (Fab, V domains shown) VH: EVQLLESGGGLVQPGGSLRLSCAASGFTFSHYTMWWVRQAPGKGLEWVSRIWPSGGTTRYADSVKGRFTISRDNSKNTLYLQMNSLRAEDTAVYYCARGGSYLAFDIWGQGTMVTVSS VL: DIQMTQSPATLSLSPGERATLSCRASQSVSSYLAWYQQKPGQAPRLLIYDASNRATGIPARFSGSGSGTDFTLTISSLEPEDFAVYYCQQRSNFGGGTKVEIKR .
7.64

Where these numbers come from: patent US7329737
